system: HL-60(TB) leukemia; assay: NCI tumour cell line growth inhibition, 48 h; in the data active means GI50 below about 0.43 µM; inactive means the rest
Output constraint: value belongs to 1.0 (active), 0.0 (inactive)

Some solved cases for reference:
Oc1ccc(Cl)cc1-c1cc(-c2ccc(F)cc2)n[nH]1 : 0.0
CC(C)(C)C(=O)OCc1nc2cc3c(cc2c(=O)[nH]1)CCC3=O : 0.0
O=C(Nc1ccc(I)cc1F)c1cc(I)ccc1O : 0.0
COc1ccc(NC(=O)/C=C(C)/C=C/C=C(C)\C=C\C2=C(C)CCCC2(C)C)cc1 : 0.0
CCOC(=O)c1ccccc1-c1c2ccc(=[N+](C)C)cc-2oc2cc(N(C)C)ccc12 : 1.0
Cc1ccc2c(c1)C(=O)c1c-2n(CCCN=[N+]=[N-])c(=O)c2cc([N+](=O)[O-])ccc12 : 0.0
OC(COc1cccc2ccccc12)CN1CCN(c2ccccc2Cl)CC1 (stereo unspecified) : 0.0
CCCCOc1ccc(/C=N/Nc2cc(C)nc3ccc(Cl)cc23)cc1 : 0.0

Incoming: I would be grateful if you could indicate the recorded call for CCOc1cc(C(C)(C)C)ccc1C1=N[C@@](C)(c2ccc(Cl)cc2)[C@@](C)(c2ccc(Cl)cc2)N1C(=O)N1CCN(CCS(C)(=O)=O)CC1 .
Outgoing: 0.0

Incoming: Any idea what this test logged for C=CCCC(=O)N1C=CC(=O)[C@H](O)[C@@H]1/C=C/c1ccccc1 ?
Outgoing: 0.0

Incoming: Call for entry CN1CCN(CCOc2ccc(-c3cnc4c(-c5ccc(F)cc5)cnn4c3)cc2)CC1 :
Outgoing: 0.0

Incoming: Tell me the recorded outcome of this test for Cn1ccnc1C[N-]Cc1nccn1C.O=[N+]([O-])[O-].O=[N+]([O-])[O-].[Cu+2] .
Outgoing: 0.0

Incoming: // outcome(item) with item = COc1ccc2c(c1)CC[C@@H]1[C@@H]2CC[C@]2(C)C=C(/C=C/C(=O)c3ccccc3)C[C@@H]12
Outgoing: 0.0

Incoming: Write down the call the test reported for this compound. Item: CCCCCc1c(C)[nH]c(/C=C2\N=C(c3ccc[nH]3)C=C2OCc2ccccc2)c1C
Outgoing: 1.0

Incoming: Outcome? c1ccc2nc(OCCN3CC3)ccc2c1
Outgoing: 0.0

Incoming: # outcome recorded in this test, key = C1CC[N-]CC1.CC(=N\O)/C(C)=N/O.CC(=N\O)/C(C)=N/O.[CH2-]CCN1CCOCC1.[Co+2]
Outgoing: 0.0
